- System: Enterococcus faecalis
- protocol text: Antimicrobial activity against vancomycin-resistant Enterococcus faecalis 03B1069
- Type: functional
readout kind: MIC (µg/mL)
Numbers only, in µg/mL.

These solved cases illustrate the format of a correct answer.
compound	result unit	MIC
CC(=O)NC[C@H]1CN(c2ccc(-c3ccc(CNCc4cnn[nH]4)cc3)c(F)c2)C(=O)O1 [RADEZOLID]	µg/mL	0.5
CC(=O)NC[C@H]1CN(c2ccc(-c3ccc(CNCCCF)cc3)c(F)c2)C(=O)O1	µg/mL	0.5

Look up and state reported MIC for CN[C@H](CC(C)C)C(=O)N[C@H]1C(=O)N[C@@H](CC(N)=O)C(=O)N[C@H]2C(=O)N[C@H]3C(=O)N[C@H](C(=O)N[C@H](C(=O)O)c4cc(O)cc(O)c4-c4cc3ccc4O)[C@H](O)c3ccc(c(Cl)c3)Oc3cc2cc(c3O[C@@H]2O[C@H](CO)[C@@H](O)[C@H](O)[C@H]2O[C@H]2C[C@](C)(N)[C@H](O)[C@H](C)O2)Oc2ccc(cc2Cl)[C@H]1O [VANCOMYCIN]
32

* * *

- Test system: Staphylococcus aureus
- protocol text: Antimicrobial activity against Staphylococcus aureus A8833 harboring U2500A mutation in 23S rRNA
- Type: functional
readout kind: MIC (µg/mL)
Answers are plain numbers, in µg/mL.

These solved cases illustrate the format of a correct answer.
compound	MIC / µg/mL
CC(=O)NC[C@H]1CN(c2ccc(N3CCOCC3)c(F)c2)C(=O)O1 [LINEZOLID]	64
CC(=O)NC[C@H]1CN(c2ccc(-c3ccc(CNCCCF)cc3)c(F)c2)C(=O)O1	32

We now examine a further compound.
Look up and state reported MIC for CC(=O)NC[C@H]1CN(c2ccc(-c3ccc(CNCc4cnn[nH]4)cc3)c(F)c2)C(=O)O1 [RADEZOLID]
32
